# Tested target: T1, Human Type 1 mutCALR (human)
# T1 chain: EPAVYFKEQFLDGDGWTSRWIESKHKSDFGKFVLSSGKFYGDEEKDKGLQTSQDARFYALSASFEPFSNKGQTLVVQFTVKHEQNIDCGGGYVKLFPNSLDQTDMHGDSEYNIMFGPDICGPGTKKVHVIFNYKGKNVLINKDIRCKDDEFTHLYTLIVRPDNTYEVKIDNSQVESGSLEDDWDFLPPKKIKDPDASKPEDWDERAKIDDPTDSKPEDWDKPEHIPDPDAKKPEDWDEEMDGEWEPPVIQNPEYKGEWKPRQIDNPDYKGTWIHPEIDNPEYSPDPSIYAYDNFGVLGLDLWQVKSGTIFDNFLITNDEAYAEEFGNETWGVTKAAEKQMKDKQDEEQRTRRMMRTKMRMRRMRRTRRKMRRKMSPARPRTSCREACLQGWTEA
# Experimental protocol: cell-based or functional assay
Rule: IC50 of inhibition of cell proliferation (Ba/F3 cells with MPL and mutCALR Type 1) below 0.2 µg/mL gives satisfied. Equal to or above 0.2 µg/mL gives not satisfied.

| Binder | Label |
| --- | --- |
| anti-mutCALR antibody clone 35 (antibody, human IgG1, lambda, V domains shown) VH: QVQLVQSGAEVKKPGATVKISCKVSGYSFTDYFIHWVQQAPGKGLAWVGLVDPEDGETIYAERFQGRVTITADTSTDTAYMELSSLRSEDTAVYYCATPGGILTDPDAFDIWGQGTMVTVSS VL: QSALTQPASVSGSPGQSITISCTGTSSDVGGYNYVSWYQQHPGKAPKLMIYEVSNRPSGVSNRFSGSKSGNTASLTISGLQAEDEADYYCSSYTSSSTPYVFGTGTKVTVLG | satisfied |
| anti-mutCALR antibody clone 40 (antibody, human IgG1, lambda, V domains shown) VH: EVQLVQSGAEVKKPGASVKVSCKVSGYTLTESSMHWVRQAPGKGLEWMGLVDPEDGETIYAQKFQGRVTMTEDTSTDTAYMELSSLRSEDTAVYYCAREEWSGDGDDAFDIWGQGTMVTVSS VL: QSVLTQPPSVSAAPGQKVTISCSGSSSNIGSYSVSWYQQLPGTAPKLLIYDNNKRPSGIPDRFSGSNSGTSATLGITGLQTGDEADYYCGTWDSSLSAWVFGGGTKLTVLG | satisfied |
| anti-mutCALR antibody clone 32 (antibody, human IgG1, lambda, V domains shown) VH: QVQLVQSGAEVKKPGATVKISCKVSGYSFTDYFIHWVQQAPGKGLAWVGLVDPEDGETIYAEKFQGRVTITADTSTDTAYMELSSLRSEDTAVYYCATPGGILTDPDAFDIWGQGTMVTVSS VL: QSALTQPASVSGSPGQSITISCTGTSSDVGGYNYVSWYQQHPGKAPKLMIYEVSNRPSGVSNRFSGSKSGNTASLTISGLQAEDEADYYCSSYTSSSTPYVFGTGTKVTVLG | not satisfied |
| anti-mutCALR antibody clone 53 (antibody, human IgG1, lambda, V domains shown) VH: QVQLVQSGAEVKKPGASVKVSCKVSGYTLTELSMHWVRQAPGKGLEWMGGFDPEDGETIYAQKFQGRVTMTEDTSTDTAYMELSSLRSEDTAVYYCATDIQGLAEFDYWGQGTLVTVSS VL: QSALTQPRSVSGSPGQSVTISCTGTNTDVGAYIDVSWYQQHPGKAPKLIIYDVSKWPSGVPDRFSGSKSGNTASLTISGLQAEDEADYYCCSYAGNHSFSFGGGTKVTVLG | not satisfied |
| anti-mutCALR antibody clone 31 (antibody, human IgG1, lambda, V domains shown) VH: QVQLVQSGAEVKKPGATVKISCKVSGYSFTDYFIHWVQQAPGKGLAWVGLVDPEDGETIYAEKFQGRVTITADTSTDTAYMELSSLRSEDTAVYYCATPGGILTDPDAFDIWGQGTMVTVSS VL: QSALTQPASVSGSPGQSVTISCTGTSSDVGGYNYVSWYQHHPGKAPKLMIYDVNKRPSGVPDRFSGSKSGNTASLTISGLQAEDEADYYCSSYIPSSTRWVFGGGTKLTVLG | not satisfied |
| anti-mutCALR antibody clone 34 (antibody, human IgG1, lambda, V domains shown) VH: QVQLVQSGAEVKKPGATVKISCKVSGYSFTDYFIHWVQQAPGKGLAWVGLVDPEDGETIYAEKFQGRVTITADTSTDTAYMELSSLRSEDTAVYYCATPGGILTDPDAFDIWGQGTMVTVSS VL: QSALTQPASVSGSPGQSITISCTGTSSDVGGYNYVSWYQQHPGKAPKLMIYEVSNRPSGVSNRFSGSKSGNTASLTISGLQAEDEADYYCSSYTSSSTYVFGTGTKVTVLG | satisfied |
| anti-mutCALR antibody clone 41 (antibody, human IgG1, lambda, V domains shown) VH: EVQLVQSGAEVKKPGASVKVSCKVSGYTLTELSMHWVRQAPGKGLEWMGLVDPEDGETIYAQKFQGRVTMTEDTSTDTAYMELSSLRSEDTAVYYCAREEWSGDGDDAFDIWGQGTMVTVSS VL: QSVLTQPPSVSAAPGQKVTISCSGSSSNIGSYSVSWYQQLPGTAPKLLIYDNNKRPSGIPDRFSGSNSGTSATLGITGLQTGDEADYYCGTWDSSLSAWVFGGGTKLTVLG | not satisfied |
| anti-mutCALR antibody clone 33 (antibody, human IgG1, lambda, V domains shown) VH: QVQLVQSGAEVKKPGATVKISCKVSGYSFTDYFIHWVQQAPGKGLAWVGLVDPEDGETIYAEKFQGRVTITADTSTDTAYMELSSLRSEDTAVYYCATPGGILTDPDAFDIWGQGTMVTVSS VL: QSALTQPRSVSGSPGQSVTISCAGTGSDVGGYNHVSWYQHHPGKAPKLMIYDVNKRPSGVPDRFSGSKSGNTASLTISGLQAEDEADYYCSSYIPSSTRWVFGGGTKLTVLG | not satisfied |
